// data source = the supplement of paper PMC6522484

# Test system: DLD1
# MEASUREMENT_NOTES: cell viability (CellTiter-Glo) relative to plate median (fraction of plate median); higher = more viable cells
# RECORDED_CONDITIONS: 5 µM; treatment time 24 h; reporter: 7TFP
MEASURE: cell viability
Give your answer as a number; write no unit.

Request: Quick one: cell viability of NC(=O)N1c2ccccc2CC(=O)c2ccccc21 ?
Response: 0.9

Request: Quick one: cell viability of Oc1ccc2c(c1)O[C@H](c1ccc(O)c(O)c1)[C@@H](O)C2 ?
Response: 1.07

Request: Quick one: cell viability of O=C(O)/C=C/c1ccccc1 ?
Response: 1.09

Request: Quick one: cell viability of CCCCCC(=O)Cc1cc(O)cc(O)c1C(=O)Oc1cc(CC(=O)CCCCC)c(C(=O)O)c(OC)c1 ?
Response: 0.992

Request: Quick one: cell viability of CN(C)c1ccc2nc3ccc(=[N+](C)C)cc-3sc2c1 ?
Response: 1

Request: Quick one: cell viability of CC(=O)[C@H]1CC[C@H]2[C@@H]3C[C@H](C)C4=CC(=O)CC[C@]4(C)[C@H]3[C@@H](O)C[C@]12C ?
Response: 0.979

---

# Test system: DLD1
# MEASUREMENT_NOTES: cell viability (CellTiter-Glo) relative to plate median (fraction of plate median); higher = more viable cells
# RECORDED_CONDITIONS: 10 µM; treatment time 24 h; reporter: TCF4/Wnt
MEASURE: cell viability
Give your answer as a number; write no unit.

Request: Quick one: cell viability of Nc1nc(N)c2nc(-c3cccc(O)c3)cnc2n1 ?
Response: 1.08

Request: Quick one: cell viability of Cn1cc(-c2ccc3ncc(Cc4ccc5ncccc5c4)n3n2)cn1 ?
Response: 1.06

Request: Quick one: cell viability of COCCOc1ccc2c(c1)ncn2-c1ccc2cccc(N3CCC(N)CC3)c2n1 ?
Response: 1.14

Request: Quick one: cell viability of Cn1cnc2c(F)c(Nc3ccc(Br)cc3Cl)c(C(=O)NOCCO)cc21 [AZD6244 (Selumetinib)] ?
Response: 1.08

Request: Quick one: cell viability of CN1CCN(c2cccc(Nc3nc4c(-c5ccc(S(C)(=O)=O)cc5)cccn4n3)c2)CC1 ?
Response: 0.896

Request: Quick one: cell viability of COc1cccc(-c2cc(=O)c3ccccc3o2)c1N ?
Response: 1.02

Request: Quick one: cell viability of COc1cc(OC)c(/C=C/S(=O)(=O)Cc2ccc(OC)c(NCC(=O)O)c2)c(OC)c1 ?
Response: 1.01

Request: Quick one: cell viability of CCOc1cc2ncc(C#N)c(Nc3ccc(F)c(Cl)c3)c2cc1NC(=O)/C=C/CN(C)C [Pelitinib (EKB-569)] ?
Response: 0.875

Request: Quick one: cell viability of O=C(NC1CCNCC1)c1n[nH]cc1NC(=O)c1c(Cl)cccc1Cl ?
Response: 1.16

Request: Quick one: cell viability of CN(C)c1ccc(-c2nc3ncc(Cl)c(N4CCN(CC(=O)Nc5nccs5)CC4)c3[nH]2)cc1 ?
Response: 1.04

---

# Tested on: DLD1
# MEASUREMENT_NOTES: TCF/Wnt firefly luciferase reporter signal relative to plate median (fraction of plate median); higher = higher Wnt reporter signal
# RECORDED_CONDITIONS: 5 µM; treatment time 24 h; reporter: 7TFP
Exercise: for every item that follows, state its recorded TCF/Wnt firefly luciferase reporter signal.

Request: Quick one: TCF/Wnt firefly luciferase reporter signal of Cc1c(Nc2ncccc2C(=O)O)cccc1C(F)(F)F ?
Response: 1.11

Request: Quick one: TCF/Wnt firefly luciferase reporter signal of O=c1ccc2ccccc2o1 ?
Response: 1.09

Request: Quick one: TCF/Wnt firefly luciferase reporter signal of OCCN1C[C@H](O)[C@@H](O)[C@H](O)[C@H]1CO ?
Response: 0.954

Request: Quick one: TCF/Wnt firefly luciferase reporter signal of CC(=O)Oc1ccccc1C(=O)O ?
Response: 1.05

Request: Quick one: TCF/Wnt firefly luciferase reporter signal of O=C(CC(=O)c1ccccc1)c1ccccc1 ?
Response: 1.15

Request: Quick one: TCF/Wnt firefly luciferase reporter signal of CCNC(=O)CC[C@H](N)C(=O)O ?
Response: 1.13

Request: Quick one: TCF/Wnt firefly luciferase reporter signal of CC1(C)O[C@@H]2C[C@H]3[C@@H]4CCC5=CC(=O)C=C[C@]5(C)[C@@]4(F)[C@@H](O)C[C@]3(C)[C@]2(C(=O)CO)O1 ?
Response: 1.09

Request: Quick one: TCF/Wnt firefly luciferase reporter signal of COc1ccc([C@H]2COc3c(ccc(O)c3OC)C2)c(OC)c1O ?
Response: 0.987

Request: Quick one: TCF/Wnt firefly luciferase reporter signal of C[N+](C)(C)CC(=O)O ?
Response: 0.906

Request: Quick one: TCF/Wnt firefly luciferase reporter signal of C=C(CC[C@@H](C(=O)O)[C@H]1CC[C@@]2(C)C3=C(CC[C@]12C)[C@@]1(C)CC[C@H](O)C(C)(C)[C@@H]1CC3)C(C)C [Eburicoic acid] ?
Response: 0.878

Request: Quick one: TCF/Wnt firefly luciferase reporter signal of CC(C)(O)CC[C@@H](O)[C@](C)(O)[C@H]1CC[C@@]2(O)C3=CC(=O)[C@@H]4C[C@@H](O)[C@@H](O)C[C@]4(C)[C@H]3CC[C@]12C ?
Response: 1.1

Request: Quick one: TCF/Wnt firefly luciferase reporter signal of CC(=O)CC(c1ccccc1)c1c(O)c2ccccc2oc1=O (centres undefined) ?
Response: 0.935

Request: Quick one: TCF/Wnt firefly luciferase reporter signal of CCOC(=O)Nc1nc2ccccc2[nH]1 ?
Response: 0.971

Request: Quick one: TCF/Wnt firefly luciferase reporter signal of CCC1=C[C@@H]2CN(C1)Cc1c([nH]c3ccccc13)[C@@](C(=O)OC)(c1cc3c(cc1OC)N(C)[C@H]1[C@@](O)(C(=O)OC)[C@H](OC(C)=O)[C@]4(CC)C=CCN5CC[C@]31[C@@H]54)C2 ?
Response: 0.911

Request: Quick one: TCF/Wnt firefly luciferase reporter signal of COc1ccc2c(c1)OCC(Cc1ccc(OC)c(OC(C)=O)c1)C2=O (centres undefined) ?
Response: 0.969

Request: Quick one: TCF/Wnt firefly luciferase reporter signal of O=C(O)c1ccccc1Nc1cccc(C(F)(F)F)c1 ?
Response: 0.96

Request: Quick one: TCF/Wnt firefly luciferase reporter signal of Clc1ccc(CSC(Cn2ccnc2)c2ccc(Cl)cc2Cl)cc1 (centres undefined) ?
Response: 0.88

Request: Quick one: TCF/Wnt firefly luciferase reporter signal of Oc1ccc(/C=C/c2cc(O)cc(O)c2)cc1 ?
Response: 1.05

Request: Quick one: TCF/Wnt firefly luciferase reporter signal of CCCc1nc2c(C)cc(-c3nc4ccccc4n3C)cc2n1Cc1ccc(-c2ccccc2C(=O)O)cc1 ?
Response: 0.98

Request: Quick one: TCF/Wnt firefly luciferase reporter signal of O=c1cc(-c2ccccc2)oc2c(O)c(O)ccc12 ?
Response: 1.13

Request: Quick one: TCF/Wnt firefly luciferase reporter signal of Cc1c(NC(=O)c2cccnc2)c(=O)n(-c2ccccc2)n1C ?
Response: 1.06

Request: Quick one: TCF/Wnt firefly luciferase reporter signal of CCN(CC)CCNC(=O)c1ccc(NC(C)=O)cc1 ?
Response: 1.08

Request: Quick one: TCF/Wnt firefly luciferase reporter signal of COC(=O)[C@H](c1ccccc1Cl)N1CCc2sccc2C1 ?
Response: 0.853

Request: Quick one: TCF/Wnt firefly luciferase reporter signal of O=C(O)c1cc(=O)c(O)c2c(O)c(O)c(O)cc2c1 ?
Response: 0.806

Request: Quick one: TCF/Wnt firefly luciferase reporter signal of CC(=O)O[C@H]1CC[C@]2(C)[C@H]3CC[C@@]4(C)[C@H](c5ccoc5)OC(=O)[C@H]5O[C@]54[C@]3(C)[C@H](OC(C)=O)C[C@H]2C1(C)C [3beta-ACETOXYDEOXODIHYDROGEDUNIN] ?
Response: 1.02

Request: Quick one: TCF/Wnt firefly luciferase reporter signal of CN(C)CCCN1c2ccccc2CCc2ccc(Cl)cc21 ?
Response: 1.06

Request: Quick one: TCF/Wnt firefly luciferase reporter signal of CC(C)(C)CC(C)(C)c1ccc(OCCOCC[N+](C)(C)Cc2ccccc2)cc1 ?
Response: 0.983

Request: Quick one: TCF/Wnt firefly luciferase reporter signal of N=c1ccn2c(n1)O[C@H]1[C@H](O)[C@@H](CO)O[C@H]12 ?
Response: 1.08

Request: Quick one: TCF/Wnt firefly luciferase reporter signal of N#CN=C(NCCCCCCOc1ccc(Cl)cc1)Nc1ccncc1 ?
Response: 1.15

Request: Quick one: TCF/Wnt firefly luciferase reporter signal of O=C1O[C@H]([C@@H](O)CO)C(O)=C1O ?
Response: 0.87

Request: Quick one: TCF/Wnt firefly luciferase reporter signal of COc1c(O)cccc1O ?
Response: 1.16

Request: Quick one: TCF/Wnt firefly luciferase reporter signal of COc1c(-c2ccccc2)oc2c(ccc3occc32)c1=O ?
Response: 1.09

Request: Quick one: TCF/Wnt firefly luciferase reporter signal of CO[C@H]1C[C@H](O[C@H]2[C@H](C)[C@@H](O[C@@H]3O[C@H](C)C[C@H](N(C)C)[C@H]3O)[C@@H](C)C[C@@]3(CO3)C(=O)[C@H](C)[C@@H](O)[C@@H](C)[C@@H](C)OC(=O)[C@@H]2C)O[C@@H](C)[C@@H]1O ?
Response: 0.869

Request: Quick one: TCF/Wnt firefly luciferase reporter signal of CC(=O)OCC(=O)[C@@]1(O)CC[C@H]2[C@@H]3C[C@H](C)C4=CC(=O)C=C[C@]4(C)[C@H]3[C@@H](O)C[C@@]21C [6alpha-METHYLPREDNISOLONE ACETATE] ?
Response: 0.904

Request: Quick one: TCF/Wnt firefly luciferase reporter signal of CC1(C)CC[C@]2(C)CC[C@]3(C)C(=CC[C@@H]4[C@@]5(C)CC[C@H](O)C(C)(C)[C@@H]5CC[C@]43C)[C@@H]2C1 [beta-AMYRIN] ?
Response: 0.913

Request: Quick one: TCF/Wnt firefly luciferase reporter signal of CC1(C)Oc2ccc3ccc(=O)oc3c2CC1O (centres undefined) ?
Response: 0.996

Request: Quick one: TCF/Wnt firefly luciferase reporter signal of Cn1c([N+](=O)[O-])cnc1COC(N)=O ?
Response: 1.05

Request: Quick one: TCF/Wnt firefly luciferase reporter signal of Nc1nc2c(ncn2COCCO)c(=O)[nH]1 ?
Response: 0.991

Request: Quick one: TCF/Wnt firefly luciferase reporter signal of O=C1NC(Cc2ccc(O)cc2)C(=O)NC1Cc1ccc(O)cc1 (centres undefined) [Cyclo(tyrosyltyrosyl)] ?
Response: 1.04
